B1: Receptor-interacting serine/threonine-protein kinase 2, residues 438 to 518; numbered along this chain, O43353 (parent)
chain: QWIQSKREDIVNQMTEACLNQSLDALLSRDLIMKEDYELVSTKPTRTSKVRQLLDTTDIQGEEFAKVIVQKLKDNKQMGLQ

- Variants of: B1
- testName: abundance fitness (aPCA) (normalised: wild type 0, dead -1); higher = more abundant; growth selection in yeast, the domain comes from the species named
- studyConditions: Homo sapiens
Hi, to clarify the labels: Condition met covers abundance fitness from -0.2 upward, Condition not met covers anything below -0.2.

For orientation, consider the following solved cases.
biopolymerSequence	labelValue
QWIQSKREDIVNQMTEACLNQSLDALSSRDLIMKEDYELVSTKPTRTSKVRQLLDTTDIQGEEFAKVIVQKLKDNKQMGLQ [L27S]	Condition met
QWIQSKREDIVNQMTEACLNQSLDALLSRDLIMKEDYELVSTKPTRTSKVRQLVDTTDIQGEEFAKVIVQKLKDNKQMGLQ [L54V]	Condition not met
QWIQSKREDIVNQMTEACLNQSLDALLSRDLIMKEDYELVSTKPTRTSKVRQLLDTTDIQGEEFADVIVQKLKDNKQMGLQ [K66D]	Condition not met

Task item: Hello, I need to know if QWIQSKREDIVNQMTEACLNQSLDALVSRDLIMKEDYELVSTKPTRTSKVRQLLDTTDIQGEEFAKVIVQKLKDNKQMGLQ [L27V] has measured abundance fitness not below -0.2. Thanks!
Reply: Condition met

Task item: Here is the next variant: QWIQSKREDIVNQMTEACLNQSLDALLSRDLIMKEDYELVSTKPTRTSKVRQLLDTTDIQGECFAKVIVQKLKDNKQMGLQ [E63C]
Reply: Condition not met
